Cited source for all entries: patent US20120021995A1

Biological target: T1, DR4 (TRAIL-R1) on cancer cells (human, UniProt O00220 24-468)
T1 sequence: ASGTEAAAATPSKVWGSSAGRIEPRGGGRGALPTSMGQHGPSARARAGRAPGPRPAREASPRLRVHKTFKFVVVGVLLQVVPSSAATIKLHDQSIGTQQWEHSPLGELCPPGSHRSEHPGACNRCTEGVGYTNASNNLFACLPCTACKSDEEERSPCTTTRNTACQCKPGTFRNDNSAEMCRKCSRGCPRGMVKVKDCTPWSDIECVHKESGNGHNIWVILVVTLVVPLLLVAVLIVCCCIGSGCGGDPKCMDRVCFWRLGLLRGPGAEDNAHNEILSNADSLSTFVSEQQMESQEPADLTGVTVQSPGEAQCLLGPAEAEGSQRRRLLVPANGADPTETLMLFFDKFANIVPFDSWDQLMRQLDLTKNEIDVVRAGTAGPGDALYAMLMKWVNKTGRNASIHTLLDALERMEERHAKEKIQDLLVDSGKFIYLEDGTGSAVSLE
Assay: cell-based or functional assay
Catalogue of binders with associated Colo205 % killing (% of TRAIL activity)
# output: bare number, implied unit %

Answered cases to consult:
binder: 71p88P1G1 (designed binder) EPPTQKPKKIVNAKKDVVNTKMFEELKSRLDTLAQEVALLKEQQALQTVCLKGTKVHMKCFLAFTQTKTFHEASEDCISRGGTLSTPQTGSENDALYEYLRQSVGNEAEIWLGLNGWMEGVGWVDMTGARIAYKNWETEITAQPDGGPPWRWENCAVLSGAANGKWFDKRCRDQLPYICQFGIV
unit_abbreviation: %
meas_value: 12
//
binder: 71p88P1G11 (designed binder) EPPTQKPKKIVNAKKDVVNTKMFEELKSRLDTLAQEVALLKEQQALQTVCLKGTKVHMKCFLAFTQTKTFHEASEDCISRGGTLSTPQTGSENDALYEYLRQSVGNEAEIWLGLNGWMAGVGWVDMTGARIAYKNWETEITAQPDGGPGLRWENCAVLSGAANGKWFDKRCRDQLPYICQFGIV
unit_abbreviation: %
meas_value: 1

Next binder, Colo205 % killing (% of TRAIL activity) to be filled in.
# Colo205 % killing (% of TRAIL activity) lookup, item 71p88P1G4 (designed binder) EPPTQKPKKIVNAKKDVVNTKMFEELKSRLDTLAQEVALLKEQQALQTVCLKGTKVHMKCFLAFTQTKTFHEASEDCISRGGTLSTPQTGSENDALYEYLRQSVGNEAEIWLGLNGYMTGVGWVDMTGARIAYKNWETEITAQPDGGRSWKWENCAVLSGAANGKWFDKRCRDQLPYICQFGIV 24
